Source listed as ChEMBL document CHEMBL3769346.

- measured_target: CGRP receptor (CALCRL/RAMP1) (Homo sapiens)
- assay_comment: Displacement of [125I]CGRP from CGRP receptor in human SK-N-MC cells after 2 hrs by scintillation counter
Kindly apply the following: satisfied if IC50 is less than 30 nM, not satisfied in every other case.

Check out these entries, answers already filled in.
[
  {
    "sample_smiles": "Cc1cc(C[C@@H](NC(=O)N2CCN(c3ccc(F)c(F)c3)CC2)C(=O)N2CCC(N3CCCCC3)CC2)cc2cn[nH]c12",
    "class_label": "not satisfied"
  },
  {
    "sample_smiles": "Cc1cc(C[C@@H](NC(=O)N2CCC(c3cc4ccccc4cc3C#N)CC2)C(=O)N2CCC(N3CCCCC3)CC2)cc2cn[nH]c12",
    "class_label": "satisfied"
  },
  {
    "sample_smiles": "Cc1cc(C[C@@H](NC(=O)N2CCN(c3ccc(S(C)(=O)=O)cc3F)CC2)C(=O)N2CCC(N3CCCCC3)CC2)cc2cn[nH]c12",
    "class_label": "not satisfied"
  }
]

Exercise: Determine whether this compound shows IC50 lower than 30 nM (ties excluded): Cc1cc(C[C@@H](NC(=O)N2CCN(c3ccc(Br)cc3)CC2)C(=O)N2CCC(N3CCCCC3)CC2)cc2cn[nH]c12
Solution: not satisfied

Exercise: Determine whether this compound shows IC50 lower than 30 nM (ties excluded): Cc1cc(C[C@@H](NC(=O)N2CCN(c3ccccc3F)CC2)C(=O)N2CCC(N3CCCCC3)CC2)cc2cn[nH]c12
Solution: not satisfied

Exercise: Determine whether this compound shows IC50 lower than 30 nM (ties excluded): Cc1cc(C[C@@H](NC(=O)N2CCC(c3ccccc3Cl)CC2)C(=O)N2CCC(N3CCCCC3)CC2)cc2cn[nH]c12
Solution: satisfied

Exercise: Determine whether this compound shows IC50 lower than 30 nM (ties excluded): Cc1cc(C[C@@H](NC(=O)N2CCC(c3ccc(Br)cc3)CC2)C(=O)N2CCC(N3CCCCC3)CC2)cc2cn[nH]c12
Solution: satisfied

Exercise: Determine whether this compound shows IC50 lower than 30 nM (ties excluded): Cc1cc(C[C@@H](NC(=O)N2CCN(c3ccc(Cl)cc3Cl)CC2)C(=O)N2CCC(N3CCCCC3)CC2)cc2cn[nH]c12
Solution: satisfied
